assay: yeast display, Sf9 membrane polyspecificity reagent, FACS + sequencing; frameworks hold sequencing errors
REPORTED_ENDPOINT: polyreactivity (PSR sort gate)

Example cases with answers are listed next.
Which polyreactivity (PSR sort gate) reading was recorded for the sequence "QVQLVESGAGLVQAGGSLRLSCAASGRTLKTYVMGWYRQAPGKERELVAAITCGGRTYYADSVKGRFTISRDNAKNTVYLQMNSLKPEDTAVYYCNAQLYWYRYWYLFDNTSFDYWGQGTQVTVSS" ?
low polyreactivity

Now the same for "QVQLVESGGGLVQAGGSLRLSCAASGRTFRWNAMGWYRQAPGKERELVATIRSGDSTNYADSVKGRFTISRDNAKNTVYLQMNSLKPEDTAVYYCAAEGVSKVYWGYFGSYDYWGQGTQVTVSS"
low polyreactivity

Now the same for "QVQLVESGGGLVQAGGSLRLSCAASGITFYLYAMGWYRQAPGKERELVAAISSSGGRTYYADSVKGRFTISRDNAKNTVYLQMNSLKPEDTAVYYCAARRYGVPPTYDYWGQGTQVTVSS"
high polyreactivity

Now the same for "QVQLVESGGGLVQAGGSLRLSCAASGSTFTTNVMGWYRQAPGKERELVAAISWSSGSTYYADSVKGRFTISRDNAKNTVSLPMNSLKPEDTAVYYCAARQVIFYPYSRYYYWGQGTQVTVSS"
high polyreactivity

Now the same for "QVQLVESGGGLVPSGGSLRLSCAASGRIFTSNAMGWYRQAPGKERELVAAISKSGGRTYYADSVKGRFTISRDNAKNTVYLQMNSLKPEETAVYYFAKDNFWGQGTQVTLSS"
high polyreactivity

Attention now turns to another entry.
Which polyreactivity (PSR sort gate) reading was recorded for the sequence "QVQLLESGGGLVQAGGSLRLSCAASGSTFLYNAMGWYRQAPGKERELVAGIRRSGGSTYYADSVKGRFTISRDNAMNTVYLQMNSLKPEDTAVYYCNTDRTLSYQYGGYDYWGQGTQVTVSS" ?
low polyreactivity

---

assay: yeast display, Sf9 membrane polyspecificity reagent, FACS + sequencing; frameworks hold sequencing errors
REPORTED_ENDPOINT: polyreactivity (PSR sort gate)

Example cases with answers are listed next.
Which polyreactivity (PSR sort gate) reading was recorded for the sequence "QVQLVESGGGLVQAGGSLRLSCAASGRTLTGNAMGWYRPAPGKERELVAVISYSGTNTRYADSVKGRFTISRDNAKNTVYLQMNSLKPEDTAVYYCAADWLGISVVRDPFDHWGQGTQVTVSS" ?
high polyreactivity

Now the same for "QVQLVESGGGLVQAGGSLRLSCAASGITFYYNAMGWYRQAPGKERELVAAIRSAGSTYYADSVKGRFTISRDNAKNTVYLQMNSLKPEDTAVYYCAAEDGTTDQVRVYWIMDYWGQGTQVTVSS"
low polyreactivity

Now the same for "QVQLVESGGGLVQAGGSLRISCAASGSTFGYNGMGWYRQAPGKERELVAAISGGARTYADSVKGRFTISRDNAKNTVYLLMNSLKPEDTAVYYCAADSPVSVTADDVFWGQGTQVTVSS"
low polyreactivity

Now the same for "QDQLVESGGGFVQEGGSLRLSCDPSGRIFYGYVMGRYRQAHGKERELVAAISRRGGSTYYADSVKGRFTISRDNAKNTVYLQMNSMKPVVTAVDYCDAVLSFALVQYYGANRDDYWGQGTQVSVSS"
high polyreactivity

Now the same for "QVQLVESGGGLVQAGGSLRLSCAASGSIFDYYAMGWYRQAPGKERELVASISWIGDRTYYADSVKGRFTISRDNAKNTVYLQMNSLKPEDTAVYYCATDYYEDWRGYEVYWYRPYDYWGQGTQVSVSS"
high polyreactivity

Now the same for "QVQLVESGGGLVQAGGSLRLSCAASGSIFWSYAMGWYRQAPGKEREFVAAITVSGGSTYYADSVKGRFTISRDNAKNTVYLQMNSLKPEDTAVFYCAARQLTAGGTDLDYWGQGTKVTVSS"
low polyreactivity

Now the same for "QVQLVESGGGLVQAGRSLRLSCAASGRTFLVYAMGWYRQAPGKERELVAVINSGTSTNYADSVKGRFTISRDNAKNTVYLQMNSQKPEDTAVYYCATAYRRRDRHYYWGQGTQVTVSS"
low polyreactivity

Now the same for "QVQLVESGGGLVQAGGSLRLTCAASGSTFLGYAMGWYRQAPGKERELVAAINLSTSGTYYADSVKGRFTISRDNAKNTVYLQMNSLKPEDTAVYYCAAAYSNINYYYQYYYWGQGTQVTVSS"
low polyreactivity

Now the same for "QLHLQESGGLVQAGGLRLSCAASGSVSYQEAMGWYRQAPGKERELVATISFGANTNYADSVKGRFTISRDNAKNTVYLQMNSLKPEDTAVYYCAAESLFDDYYGYWGQGTQVTVSS"
low polyreactivity

Now the same for "QVQLVESGGGLVQAGGSLRLSCAASGLTFYGYTMGWSRQAPGKERELVAAISWSGGNTYYADSVKGRFTISRDNEKNTVYLQMNSLKPEDTAVYYCAAEHWTYDWVDYWGQGTQVTVSS"
low polyreactivity

More entries:
Which polyreactivity (PSR sort gate) reading was recorded for the sequence "QVQLVESGGGLVQAGGSLRLSCAASVRTVDSYTMGWYRQAPGKERELVAAIRSSGGRTYADSVKGRFTISRDNAKNTVYLQMNSLKPEDTAVYYCAAARSYWAKYYYWGQGTQVTVSS" ?
high polyreactivity

Now the same for "QVKLVESGGGKVQAGGSLRLSCAASGYTFDPNAIGWYRQEPGKERELVAAISRIGGSTYYADSVKGRFTISRDNAKTTLYVQMNSLKPEDTAVYYCAVDWYLTGHWADDYWGQGTQVTVSS"
low polyreactivity

Now the same for "QVQLVESGGGLVQAGGSLRLSCAASGRIFQDYARGWYRQAPGKERELVPSIRWSSTSTYYADSVKGRFTISRDNAKNTVYLQMNSLKPEDTAVYYCNARYPYYTRTRDGRMYYWGQGTQVTVSS"
low polyreactivity

Now the same for "QVQLVESGGGLVQAGGSLRLSCAASGRVFSTNAMGWYRQAPGKERELVAGINSGGSTNYADSVKGRFTISRDNAKNTVSLQMNSLKPEDTAVYYCNATLRVESWYVHYGVDYDYWGQGTQVTVSS"
low polyreactivity
